# experiment: folding enthalpy; higher = less favourable; fluorescence melt of hairpins on a sequencing array, two-state fit
# condition set: sodium 0.088 M
recorded metric: folding enthalpy (kcal/mol)
Just the number in kcal/mol, nothing appended.

These solved cases illustrate the format of a correct answer.
GCTAATGGAAACACTAGC ((((.((....)).)))) : -23.9
GCTCTCGAAAGAGGTAGC ((((((....)))..))) : -25.4
GCGGCCTCGAAAGAGCGC (((..(((....)))))) : -25.6
GCTAGCGAAAGCTAAAGC ((((((....)))..))) : -19.1
GAATGCGGAAACGCATTC (((((((....))))))) : -39.1

Exercise: For the sequence TGCGGGAAACCGCA (((((....))))) , what folding enthalpy is on record?
Key: -15.7

---

# experiment: melting temperature; fluorescence melt of hairpins on a sequencing array, two-state fit, raised by 9.35 °C to match UV melts
# condition set: sodium 0.088 M
recorded metric: Tm (°C)
Please respond with the number in °C and leave the unit unwritten.

Exercise: What measured Tm goes with GTCAGCGAAAGCTTGAC ((((((....))).))) ?
Key: 49.9

---

# experiment: melting temperature; fluorescence melt of hairpins on a sequencing array, two-state fit, raised by 9.35 °C to match UV melts
# condition set: sodium 0.088 M
recorded metric: Tm (°C)
# number only, unit °C dropped from output

Exercise: Can you look up the measured Tm of GACAGCGAAAGCTCAGTC ((((((....)))..))) for me?
Key: 38.7

Exercise: Subsequent entry: GACAAAGAAATTTGTC ((((((....))))))
Key: 43.4

Exercise: Same thing, different sequence: GATCGGGACCCCGATC ((((((....))))))
Key: 62.4

Exercise: Please do the same for GCAAAGCGAAAGCTATGC (((.(((....))).))) as well.
Key: 52

Exercise: Then CTATCGAAAGATAG (((((....))))) ?
Key: 47.1

Exercise: Now consider GGATACGAAAGTAATTCC ((((((....)))..))) and answer again.
Key: 27.7

---

Quick list: folding enthalpy per entry.
# experiment: folding enthalpy; higher = less favourable; fluorescence melt of hairpins on a sequencing array, two-state fit
# condition set: sodium 0.088 M
Just the number please, in kcal/mol, no unit attached.

Solved cases (2 shown):
GCAGCAGGAAACTGCCGC ((.((((....)))).)) : -27.8
GTCGGTGGAAACGCCGAC (((((.(....).))))) : -50

Exercise: Please look up its folding enthalpy: GATCGGGGAAACCCGGTC ((.((((....)))).))
Key: -26.8

Exercise: Request: GACTCCGAAAGGATAGTC ((((((....)))..)))
Key: -22.5

Exercise: Try this sequence too: GCCAGCGAAAGCTTCGGC ((((((....)))..)))
Key: -23.7

Exercise: Continue with GGGTTAACGAAAGTTCCC (((..(((....))))))
Key: -21.2

Exercise: What would you report for GCGTTGCGAAAGCACGGC ((..(((....)))..)) ?
Key: -13.6

---

# experiment: folding enthalpy; higher = less favourable; fluorescence melt of hairpins on a sequencing array, two-state fit
# condition set: sodium 0.088 M
Decision: folding enthalpy compared against -90 kJ/mol; not below it gives MET, below it gives NOT MET.

Use the examples below as a reference point.
GGTACGCGAAAGCGCACC (((.(((....))).))) : NOT MET
GATCTCCCACGAGATC ((((((....)))))) : NOT MET
GCAGAGCGAAAGCACCGC ((.(.((....)).).)) : MET
CGCTCGGAAACGATCGCG ((((((....)))..))) : NOT MET

Okay, now this sequence:
Exercise: Item GTTGGTGGAAACGTCAAC ((((..(....)..)))) with folding enthalpy of -90 kJ/mol or above?
Key: MET

---

# experiment: folding enthalpy; higher = less favourable; fluorescence melt of hairpins on a sequencing array, two-state fit
# condition set: sodium 0.088 M
# binarize folding enthalpy: threshold -30 kcal/mol inclusive, high side Yes, low side No

Study these solved cases before continuing.
GGCGCCCGAAAGGGGCC (((.(((....)))))) : Yes
GCGAGTGGAAACGCTCGC (((((.(....).))))) : No
GATCACAAAGGTGATC ((((((....)))))) : No
GCTGTCACGAAAGTGAGC (((..(((....)))))) : Yes
GATCCATAATGGATC ((((((...)))))) : No
GCGTGGCGAAAGCCTTGC ((..(((....)))..)) : Yes
GAAGGCGAAAGCCCCTTC ((((((....)))..))) : Yes
GAGTACGAAAGTAAACTC ((((((....)))..))) : Yes
GAGGAGGAAACTCCTC ((((((....)))))) : No
GCAGAGCGAAAGCTAGGC ((..(((....)))..)) : Yes

Exercise: Decide: folding enthalpy of GTTGCTGAAAAGCAAC ((((((....)))))) >= -30 kcal/mol?
Key: No

Exercise: For GCGAGGCGAAAGCCTGGC ((.((((....)))).)) then?
Key: Yes

Exercise: Then GGCCACCGAAAGGTCGCC (((.(((....))).))) ?
Key: No

---

Quick list: Tm per entry.
# experiment: melting temperature; fluorescence melt of hairpins on a sequencing array, two-state fit, raised by 9.35 °C to match UV melts
# condition set: sodium 0.088 M
Reply with just the number (in °C).

Here is how some sequences turned out for Tm.
GGCATTTCGAAAGAAGCC (((..(((....)))))) : 34.4
GATCATTACCATGATC ((((((....)))))) : 46.8

Exercise: Tm lookup needed for GAAGGGACGAAAGTCTTC (((..(((....)))))) , thanks.
Key: 26.7

Exercise: How about this sequence: GAGGTGGGAAACCACTTC ((.((((....)))).))
Key: 46

Exercise: Moving on to GATCGTCTGAACGATC ((((((....))))))
Key: 55.6

Exercise: Then what about the sequence GCAGGCGGAAACACCCGC ((.((.(....).)).)) ?
Key: 36.1

Exercise: Same lookup for GCGTTATCGAAAGATCGC (((..(((....)))))) , please.
Key: 44.3

Exercise: Entry to check: GACTTGGGAAACTGAGTC ((((..(....)..))))
Key: 33.5

Exercise: Now the same for CGCCGTCGGAAACGAGCG (((..(((....))))))
Key: 50.3

Exercise: Also, GCGAAGTTCGC ((((...)))) please.
Key: 46.4

Exercise: Next up: CGGACGGAAACGTGGCCG ((((((....)))..)))
Key: 44.1

Exercise: Request: GGGTGCGAAAGCAGTCCC ((((((....)))..)))
Key: 50.5

---

# experiment: folding enthalpy; higher = less favourable; fluorescence melt of hairpins on a sequencing array, two-state fit
# condition set: sodium 0.088 M
// folding enthalpy lookup, one value per entry
Write the value in kcal/mol as a bare number.

Example entries begin here.
GATCAATTCTTTGATC ((((((....)))))) : -35.9
GATCCTCATGAGGATC ((((((....)))))) : -41.1
GTCTGCGGAAACACAGAC (((((.(....).))))) : -44.1
GAGAACCGAAAGGTGCTC (((.(((....))).))) : -34.3
GATCCACAATTGGATC ((((((....)))))) : -32.4

Exercise: Query: folding enthalpy; subject: GATCATCCGGATGATC ((((((....))))))
Key: -52.5

---

# experiment: folding enthalpy; higher = less favourable; fluorescence melt of hairpins on a sequencing array, two-state fit
# condition set: sodium 0.088 M
recorded metric: folding enthalpy (kcal/mol)
Report the figure in kcal/mol without appending any unit label.

GTTGTTGGAAACAATAGC (.(.(((....))).).) : -11.9
GCCGGCTCGAAAGAGGGC (((..(((....)))))) : -19.2
GTTTGCCCGAAAGGGAAC (((..(((....)))))) : -11.3
GCCGTCGAAAGACATGGC ((((((....)))..))) : -23.9

Exercise: Which folding enthalpy is listed for GCGATCACGAAAGTGCGC (((..(((....)))))) ?
Key: -20.9

Exercise: Entry to check: GCAACGCGAAAGCGAGGC ((..(((....)))..))
Key: -13.5

Where do these numbers come from? They come from the array DNA melting data of Ke et al. (doi:10.1101/2024.01.08.574731).
